- PROTOCOL_NOTES: in vitro heme aggregation (polymerization) assay
- Assay type: biochemical
- RUN_CONDITIONS: Table 3; 25 μM heme, pH 5.2, 37° C., 2 hours; average of at least two determinations; read-out: IC50, μM in vitro heme polymerization
PROPERTY: IC50 (µM)

COMPOUND	UNIT_OF_MEASUREMENT	CENSOR_SYMBOL	EXPERIMENTAL_VALUE
COc1cc2c(=O)c3ccc(OC)c(OC)c3oc2c(OC)c1OC [2,3,4,5,6-pentamethoxyxanthone]	µM	>	1000
O=c1c2cccc(O)c2oc2c(O)cccc12 [4,5-dihydroxyxanthone]	µM	=	14
CC(=O)Oc1cc2c(=O)c3ccc(OC(C)=O)c(OC(C)=O)c3oc2c(OC(C)=O)c1OC(C)=O [2,3,4,5,6-pentaacetoxyxanthone]	µM	>	1000
O=c1c2cc(O)c(O)c(O)c2oc2cc(O)cc(O)c12 [1,3,5,6,7-pentahydroxyxanthone]	µM	=	9
O=c1c2ccccc2oc2cc(O)ccc12 [3-hydroxyxanthone]	µM	>	1000
O=c1c2ccc(O)c(O)c2oc2c(O)c(O)ccc12 [3,4,5,6-tetrahydroxyxanthone]	µM	=	2.5
O=c1c2ccc(O)cc2oc2cc(O)ccc12 [3,6-dihydroxyxanthone]	µM	>	500
O=c1c2ccccc2oc2ccc(O)cc12 [2-hydroxyxanthone]	µM	>	1000
O=c1c2ccccc2oc2c(O)c(O)c(O)cc12 [2,3,4-trihydroxyxanthone]	µM	=	17
O=c1c2ccccc2oc2cc(O)cc(O)c12 [1,3-dihydroxyxanthone]	µM	>	1000
O=c1c2cc(O)c(O)c(O)c2oc2c(O)c(O)c(O)cc12 [2,3,4,5,6,7-hexahydroxyxanthone]	µM	=	1.4
O=c1c2ccc(O)c(O)c2oc2c(O)c(O)c(O)cc12 [2,3,4,5,6-pentahydroxyxanthone]	µM	=	1.2
